Measured scaled log2 fold change by item
B1: library; numbered along this chain (parent)
chain: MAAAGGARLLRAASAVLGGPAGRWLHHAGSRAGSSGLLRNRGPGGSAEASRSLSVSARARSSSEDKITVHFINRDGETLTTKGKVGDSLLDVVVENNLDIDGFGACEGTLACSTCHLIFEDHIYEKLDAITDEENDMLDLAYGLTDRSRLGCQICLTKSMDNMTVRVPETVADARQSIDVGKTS

variants of: B1; assay: scaled log2 fold change in cell abundance, elesclomol vs control (0 = silent mean, 1 = nonsense mean) (scaled log2 ratio); higher = higher viability under elesclomol (loss of FDX1 cuproptosis function); conditions: with HEK293T FDX1 KO; elesclomol 40 nM; glucose 10 mM; 11 days;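 also: variant abundance is its share of total variant reads in each endpoint sample, from next-generation sequencing of the integrated ORF PCR-amplified out of genomic DNA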
REPORTED METRIC: scaled log2 fold change

- MUTATION DESCRIPTOR: "R23C"
  ENDPOINT RESULT: 0.458
- MUTATION DESCRIPTOR: "I118T"
  ENDPOINT RESULT: 0.934
- MUTATION DESCRIPTOR: "V93G"
  ENDPOINT RESULT: -0.293
- MUTATION DESCRIPTOR: "T78V"
  ENDPOINT RESULT: -0.249
- MUTATION DESCRIPTOR: "D146I"
  ENDPOINT RESULT: 0.0633
- MUTATION DESCRIPTOR: "F103Q"
  ENDPOINT RESULT: 1.02
- MUTATION DESCRIPTOR: "S30T"
  ENDPOINT RESULT: -0.554
- MUTATION DESCRIPTOR: "A3C"
  ENDPOINT RESULT: 0.756
- MUTATION DESCRIPTOR: "S63I"
  ENDPOINT RESULT: 0.315
- MUTATION DESCRIPTOR: "G86F"
  ENDPOINT RESULT: -0.571
- MUTATION DESCRIPTOR: "R74Y"
  ENDPOINT RESULT: 0.186
- MUTATION DESCRIPTOR: "D139K"
  ENDPOINT RESULT: 0.86
- MUTATION DESCRIPTOR: "S30F"
  ENDPOINT RESULT: -0.2
- MUTATION DESCRIPTOR: "A4G"
  ENDPOINT RESULT: -0.212
- MUTATION DESCRIPTOR: "A21F"
  ENDPOINT RESULT: 0.113
- MUTATION DESCRIPTOR: "I72F"
  ENDPOINT RESULT: -0.0982
- MUTATION DESCRIPTOR: "A47L"
  ENDPOINT RESULT: 0.437
- MUTATION DESCRIPTOR: "A32S"
  ENDPOINT RESULT: -0.496
- MUTATION DESCRIPTOR: "G83H"
  ENDPOINT RESULT: -0.572
- MUTATION DESCRIPTOR: "D161M"
  ENDPOINT RESULT: -0.0785
- MUTATION DESCRIPTOR: "E64M"
  ENDPOINT RESULT: -0.0994
- MUTATION DESCRIPTOR: "P168G"
  ENDPOINT RESULT: -0.0258
